target_of_assay: Hexose transporter 1 (Plasmodium falciparum)
experimental_protocol: ST_JUDE_LEISH: Cytotoxicity at 2uM final concentration against transgenic Leishmania Mexicana promastigotes LmPfHT that are glucose transport deficient and complemented with the Plasmodium falciparum hexose transporter. Activity is measured by DNA content using SYBR green in vitro
Assay type: functional
measured_parameter: inhibition (%)
Answer format: numeric, % implied, no suffix.

Examples with their reported inhibition follow.
{"compound": "CN(C)CCOc1ccc(N2CCN(CCCCNC(=O)c3ccc(/C=C/c4cc(Cl)cc(Cl)c4)cc3)CC2)cc1", "unit_descriptor": "%", "observed": 0.08}
{"compound": "CCCn1c(Sc2ccc(C#N)c([N+](=O)[O-])c2)nnc1-c1ccc(N(C)C)cc1", "unit_descriptor": "%", "observed": 4.8}

Q. Provide Hexose transporter 1 (Plasmodium falciparum) inhibition reading for "O=C(/C=C/c1ccc(Cl)c(Cl)c1)NCCCCCN1CCCN(C(=O)Nc2ccc([N+](=O)[O-])cc2)CC1" .
A. 1.11

Q. Provide Hexose transporter 1 (Plasmodium falciparum) inhibition reading for "COc1ccc(OC)c(Cc2cnc3nc(N)[nH]c(=O)c3c2C)c1" .
A. 4.59

Q. Provide Hexose transporter 1 (Plasmodium falciparum) inhibition reading for CC(CCCCOCCc1ccccc1)NCC(O)c1cc(Cl)c(N)c(Cl)c1 (centres undefined) .
A. 0.7

Q. Provide Hexose transporter 1 (Plasmodium falciparum) inhibition reading for "N#Cc1ccc(-c2ccc(C(=O)NCCCCN3CCC(c4cc(Br)c5c(c4OCC(N)=O)CCCC5)CC3)cc2)cc1" .
A. 1.24

Q. Provide Hexose transporter 1 (Plasmodium falciparum) inhibition reading for Cc1cccc2nc(-c3ccc(-c4ccc(NC(=O)C(C)CN(C)C)cc4)cc3)[nH]c12 (centres undefined) .
A. 9.44

----------
target_of_assay: Glucose transporter (Leishmania mexicana) (UniProt O61059)
experimental_protocol: ST_JUDE_LEISH: Cytotoxicity at 2uM final concentration against transgenic Leishmania Mexicana promastigotes LmGT2 that are glucose transport deficient and complemented with the L. Mexicana glucose transporter 2. Activity is measured by DNA content using SYBR green in vitro
Type: functional
Measured inhibition values are reported for all entries that follow.
Answer format: numeric, % implied, no suffix.

Q. Please look at this molecule and report its inhibition: "O=C(Nc1ccc(N2CCCCC2)c(Cl)c1)c1ccc(Br)o1"
A. 2.35

Q. Please look at this molecule and report its inhibition: "CS(=O)(=O)CCNCc1ccc(-c2ccc3ncnc(Nc4ccc(OCc5ccccc5)c(Cl)c4)c3c2)o1"
A. -1.49

Q. Please look at this molecule and report its inhibition: "CN(C)C(=O)c1ccc(CN(Cc2cccc(OC(C)(C)C)c2)Cc2ccc3c(c2)OCCO3)cc1"
A. 1

Q. Please look at this molecule and report its inhibition: CCc1c(CCNCCCC(C)CCNCCc2ccc(OC)c(OC)c2CC)ccc(OC)c1OC (stereo not given)
A. 1.22

Q. Please look at this molecule and report its inhibition: "COc1ccc(Nc2ccnc3cc(Cl)ccc23)cc1OC"
A. 7.28

----------
target_of_assay: Glucose transporter (Leishmania mexicana) (UniProt O61059)
experimental_protocol: ST_JUDE_LEISH: Cytotoxicity at 2uM final concentration against transgenic Leishmania Mexicana promastigotes LmGT2 that are glucose transport deficient and complemented with the L. Mexicana glucose transporter 2. Activity is measured by DNA content using SYBR green in vitro
Type: functional
Measured inhibition values are reported for all entries that follow.
Answer format: numeric, % implied, no suffix.

Examples with their reported inhibition follow.
{"structure_smiles": "Cc1[nH]c(-c2ccc(F)cc2)cc1C(=O)NC1CCN(Cc2ccccc2)CC1", "unit_descriptor": "%", "inhibition": -0.98}
{"structure_smiles": "CC(C)CCOc1ccc(NC(=O)c2cccs2)cc1", "unit_descriptor": "%", "inhibition": 5.27}
{"structure_smiles": "COc1cccc(-c2cccc(NC(=O)C3CCN(Cc4ccc(O)cc4)CC3)c2)c1", "unit_descriptor": "%", "inhibition": -5.2}
{"structure_smiles": "O=C(NC1CC1)c1cnc(N2CCC(Cc3ccccc3)CC2)c(Cl)c1", "unit_descriptor": "%", "inhibition": -0.03}
{"structure_smiles": "COc1ccc(CCON2C(=N)N=C(N)NC2(C)C)cc1OC", "unit_descriptor": "%", "inhibition": 3.2}

Q. Please look at this compound and report its inhibition: "CC(C)CNC(=S)N1CCCN(c2nc3ccc(Cl)cc3s2)CC1"
A. 0.2

----------
target_of_assay: Hexose transporter 1 (Plasmodium falciparum) (UniProt O97467)
experimental_protocol: ST_JUDE_LEISH: Cytotoxicity at 2uM final concentration against transgenic Leishmania Mexicana promastigotes LmPfHT that are glucose transport deficient and complemented with the Plasmodium falciparum hexose transporter. Activity is measured by DNA content using SYBR green in vitro
Assay type: functional
measured_parameter: inhibition (%)
Answer format: numeric, % implied, no suffix.

Examples with their reported inhibition follow.
{"compound": "COc1ccccc1NC(=O)Nc1ccc(-c2cccc(-c3nc4ccccc4[nH]3)c2)cc1", "inhibition (%)": 2}
{"compound": "Cc1c(F)cc(C(=O)NC2CC2)cc1-c1ccc2c(cnn2S(=O)(=O)c2ccc(C#N)cc2)c1", "inhibition (%)": 1.11}
{"compound": "CCc1cn2c3c(cc(C(=O)N[C@@H](Cc4cc(F)cc(F)c4)[C@H](O)CNC4CCCCC4)cc13)N(C)S(=O)(=O)CC2", "inhibition (%)": 0.2}
{"compound": "COc1cccc(CNC(=O)c2ccnc(-c3cccc(CN(C)C4CCN(C)CC4)c3)c2)c1", "inhibition (%)": -0.18}
{"compound": "COC(=O)c1ccc2[nH]cc(C3CCN(CCC4CCN(C(=O)/C=C/c5ccc(Cl)c(Cl)c5)CC4)CC3)c2c1", "inhibition (%)": 4.72}
{"compound": "CC(=NO)C1=C(O)C(c2ccccc2)N(c2ccccc2)C1=O (centres undefined)", "inhibition (%)": 2.06}
{"compound": "CCC[C@@H]([C@@H](Cc1ccc(C)s1)C(=O)N[C@@H](CNC(C)=O)C(=O)Nc1nccs1)N(O)C=O", "inhibition (%)": 9.56}
{"compound": "COCCNC(=O)c1ccc(OC2CCN(Cc3ccc(F)c(F)c3)CC2)c(Cl)c1", "inhibition (%)": 1.83}

Now let's try a different one.
Q. Please look at this compound and report its inhibition: "O=C(Cc1ccc[n+]([O-])c1)Nc1cccc(-c2cccc(-c3nc4cc(C(F)(F)F)ccc4[nH]3)c2)c1"
A. -0.06

----------
target_of_assay: Hexose transporter 1 (Plasmodium falciparum) (UniProt O97467)
experimental_protocol: ST_JUDE_LEISH: Cytotoxicity at 2uM final concentration against transgenic Leishmania Mexicana promastigotes LmPfHT that are glucose transport deficient and complemented with the Plasmodium falciparum hexose transporter. Activity is measured by DNA content using SYBR green in vitro
Type: functional
measured_parameter: inhibition (%)
Answer format: numeric, % implied, no suffix.

Examples with their reported inhibition follow.
{"compound": "COc1ccc(C=Cc2ccc(-c3c(C)[nH]c(C)c(Cl)c3=O)cc2)cc1OC", "unit_descriptor": "%", "inhibition": -2.94}
{"compound": "CC(C)(C)c1ccc(CNC(=O)/C=C/c2ccc(CNC3CCNCC3)cc2)cc1", "unit_descriptor": "%", "inhibition": -1.07}

Q. Please look at this compound and report its inhibition: "CCOC(=O)c1c(C)noc1Nc1ccc(OC)cc1"
A. 2.32

Q. Please look at this compound and report its inhibition: COc1ccc2nccc(NC(=O)C3CCC(NCc4cnc(SC)c([N+](=O)[O-])c4)CC3)c2n1 (centres undefined)
A. 10.3

Q. Please look at this compound and report its inhibition: "O=C(Nc1ccc(F)c(Cl)c1)c1cc([N+](=O)[O-])cc2cn[nH]c12"
A. -0.66

Q. Please look at this compound and report its inhibition: "N=C(Cc1ccc(Cl)cc1)NCCN1CCCCCC1"
A. 7.11

Q. Please look at this compound and report its inhibition: "CCN(CC)c1ccccc1CNC(=O)c1cc(Cl)c(N)cc1OC"
A. 9.03

Q. Please look at this compound and report its inhibition: "Cn1nccc1C(=O)NCCNCc1ccc(-c2ccc(-c3nc4cc(C(F)(F)F)ccc4[nH]3)s2)cc1"
A. -0.52

Q. Please look at this compound and report its inhibition: CCNc1cc(C(=O)N[C@@H](Cc2ccccc2)[C@H](O)CNC2CC3CCC2C3)cc(N2CCCCS2(=O)=O)c1 (some centres undefined)
A. 1.76

Q. Please look at this compound and report its inhibition: "CC(C)(C)NS(=O)(=O)c1cc(C(=O)N2CCC(CCN3CCC(O)(c4cccc(C(F)(F)F)c4)CC3)(c3cccc(F)c3)CC2)c(Cl)cc1F"
A. 1.52

Q. Please look at this compound and report its inhibition: CCC(C)(C)C1CCc2[nH]c3ccccc3c(=O)c2C1 (centres undefined)
A. 26.9

----------
target_of_assay: Solute carrier family 2, facilitated glucose transporter member 1 (Homo sapiens) (UniProt P11166)
Sequence (P11166 whole entry): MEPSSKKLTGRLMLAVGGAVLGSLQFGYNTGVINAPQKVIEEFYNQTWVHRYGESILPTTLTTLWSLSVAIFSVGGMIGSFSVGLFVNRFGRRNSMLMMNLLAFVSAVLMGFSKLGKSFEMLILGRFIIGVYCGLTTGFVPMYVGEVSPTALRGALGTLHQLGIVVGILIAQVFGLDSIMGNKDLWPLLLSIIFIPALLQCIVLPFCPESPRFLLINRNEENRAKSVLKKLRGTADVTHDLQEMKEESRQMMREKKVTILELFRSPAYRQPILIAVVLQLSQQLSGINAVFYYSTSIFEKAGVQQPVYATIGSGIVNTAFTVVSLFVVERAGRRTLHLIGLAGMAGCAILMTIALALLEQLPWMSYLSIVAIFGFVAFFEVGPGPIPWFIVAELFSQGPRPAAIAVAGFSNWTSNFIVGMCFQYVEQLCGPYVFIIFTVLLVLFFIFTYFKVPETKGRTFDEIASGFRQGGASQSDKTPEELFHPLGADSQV
experimental_protocol: ST_JUDE_LEISH: Cytotoxicity at 2uM final concentration against transgenic Leishmania Mexicana promastigotes LmGLUT1 that are glucose transport deficient and complemented with the human glucose transporter GLUT1. Activity is measured by DNA content using SYBR green in vitro
Format: functional
Measured inhibition values are reported for all entries that follow.
Answer format: numeric, % implied, no suffix.

Examples with their reported inhibition follow.
{"molecule": "COc1cc(C(=O)N2CCOC(CCN3CCC4c5ccccc5CC43)(c3ccc(Cl)c(Cl)c3)C2)cc(OC)c1OC (centres undefined)", "measured_parameter": "inhibition", "observed": 3.86}
{"molecule": "Cc1cccc2[nH]c(-c3cc(-c4cn[nH]c4)cnc3N)nc12", "measured_parameter": "inhibition", "observed": 2.56}
{"molecule": "CCN(CC)CCCN(CCCN(CC)CC)c1cc(C)nc(Nc2ccc(Br)cc2)n1", "measured_parameter": "inhibition", "observed": 0.34}
{"molecule": "O=C(/C=N/O)Nc1ccccc1[N+](=O)[O-]", "measured_parameter": "inhibition", "observed": -1.31}
{"molecule": "Nc1nc(N)c2cc(N(Cc3ccccc3)Cc3ccccc3)ccc2n1", "measured_parameter": "inhibition", "observed": 16.1}

Q. Please look at this molecule and report its inhibition: "CCCn1c(Sc2ccc(C#N)c([N+](=O)[O-])c2)nnc1-c1ccc(N(C)C)cc1"
A. 5.64

Q. Please look at this molecule and report its inhibition: "CCCOc1cccc(C(=O)N[C@@H](Cc2ccccc2)[C@H](O)CNCc2cccc(OC)c2)c1"
A. 0.22

Q. Please look at this molecule and report its inhibition: "CCN(CC)CCNc1ccnc2[nH]c3ccc(Cl)cc3c12"
A. 1.19

Q. Please look at this molecule and report its inhibition: "CC(=O)Nc1ccc2[nH]cc(C3CCN(CCC4CCN(C(=O)/C=C/c5ccc(Cl)c(Cl)c5)CC4)CC3)c2c1"
A. 8.34

Q. Please look at this molecule and report its inhibition: "CC(C)(C)c1ccc(NC(=O)c2ccc(CN3CCCN(Cc4cccc(C#N)c4)CC3)cc2)cc1"
A. 6.54
